- System: NOMO1
- ASSAY PROTOCOL: cell viability relative to DMSO control; higher = less cytotoxic
- PROTOCOL CONDITIONS: RPMI 5 mM glucose + 10% dialyzed FBS; 48 h; 46.1 µM
cell viability values, listed per item
Answer in %, number only, no unit symbol.

>>> obs_value("CC(=O)NC(CS)C(=O)O (stereo not given)")
75.9
>>> obs_value("Cc1cccc(C)c1OCC(=O)N[C@@H](Cc1ccccc1)[C@@H](O)C[C@H](Cc1ccccc1)NC(=O)[C@H](C(C)C)N1CCCNC1=O")
71
>>> obs_value("O=C(Nc1cccc(Nc2ncc(Br)c(NCCc3cnc[nH]3)n2)c1)N1CCCC1")
0.0873
>>> obs_value("COC[C@@H](NC(C)=O)C(=O)NCc1ccccc1")
69.5

// switching to the query compound
Using known records, supply cell viability for `CCc1c(C(=O)C(N)=O)c2c(OCC(=O)O)cccc2n1Cc1ccccc1`
92

====

Entries and their measured cell viability follow.
- Tested on: NOMO1
- ASSAY PROTOCOL: cell viability relative to DMSO control; higher = less cytotoxic
- PROTOCOL CONDITIONS: RPMI 5 mM glucose + 10% dialyzed FBS; 48 h; 0.00702 µM
Record the value in %, omitting the unit from your answer.

>>> obs_value("C[C@@H](O)[C@@H]1[C@H]2[C@@H](C)\\C(=C(/N2C1=O)C(=O)OCOC(=O)C(C)(C)C)SC3CN(C3)/C4=N/CCS4")
103
>>> obs_value("O=C(NC[C@H](O)CN1CCc2ccccc2C1)c1cc(NC2COC2)ncn1")
93.5
>>> obs_value("CC(=O)Nc1ccc([C@H](C)C(=O)Nc2ncc(C(C)C)s2)cc1")
96.3

Report the value of cell viability obtained on NOMO1 for `N=C(N)NC(=O)c1nc(Cl)c(N)nc1N` .
123

Lab note: NOMO1 assay, enter cell viability for `CCC(=O)OCC(=O)[C@@]1(OC(=O)CC)[C@@H](C)C[C@H]2[C@@H]3CCC4=CC(=O)C=C[C@]4(C)[C@@]3(F)[C@@H](O)C[C@@]21C` here
117

Lab note: record cell viability of `CN1\C(=C(\O)C2=C(C=CS2)[S+]1([O-])=O)C(=O)NC3=CC=CC=N3` tested on NOMO1.
117

Fetch value of cell viability on NOMO1 for `Cc1cccc(-c2nn(C(=S)Nc3ccccc3)cc2-c2ccnc3ccccc23)n1` .
112

State cell viability (NOMO1) of `N[S+](=O)([O-])c1cc(Cl)c(Cl)c([S+](N)(=O)[O-])c1` .
110

Report value only: cell viability, NOMO1, `C\C1=C\N([C@H]2C[C@H](N=[N+]=[N-])[C@@H](CO)O2)C(=O)NC1=O`
109

====

Listed compounds paired with reported cell viability
- Tested on: P12-Ichikawa
- ASSAY PROTOCOL: cell viability relative to DMSO control; higher = less cytotoxic
- PROTOCOL CONDITIONS: RPMI 5 mM glucose + 10% FBS; 48 h; 0.569 µM
Dear colleague, please return just the value in %, with no unit written.

>>> obs_value("c1cc(CN2CCCNCCNCCCNCC2)ccc1CN1CCCNCCNCCCNCC1")
101
>>> obs_value("CC(=O)C\\1=C(/C)C2=CN=C(NC3=CC=C(C=N3)N4CCNCC4)N=C2N(C5CCCC5)C1=O")
98.5
>>> obs_value("C1CCC(C(CC2CCCCN2)C2CCCCC2)CC1 (stereo not drawn)")
126
>>> obs_value("Cc1cccc(C)c1OCC(=O)N[C@@H](Cc1ccccc1)[C@@H](O)C[C@H](Cc1ccccc1)NC(=O)[C@H](C(C)C)N1CCCNC1=O")
97.4
>>> obs_value("CCNC(=O)c1cc2c(-c3cc(OCCN4CCCC4)c(Cl)cc3Cl)nc(N)nc2s1")
97.2

Specify measured cell viability for CC(=O)CC(C1=CC=CC=C1)C/2=C(O)/C3=CC=CC=C3OC2=O (stereo not drawn) .
132

Output cell viability of `Oc1ccc(C2CCN(c3ccnc4ccccc34)CC2)cc1O`
113

Determine from records and report cell viability for `COc1cc2c(Oc3ccc(NC(=O)C4(C(=O)Nc5ccc(F)cc5)CC4)cc3F)ccnc2cc1OCCCN1CCOCC1`
77.1

Read off the recorded cell viability for `CN(C)C(=O)c1ccc([S+](=O)([O-])c2ccc(NC(=O)[C@@](C)(O)C(F)(F)F)c(Cl)c2)cc1`
97.9

Return cell viability for the following compound: `C[C@H]1C[C@H]2[C@@H]3CCC4=CC(=O)C=C[C@]4(C)[C@@]3(F)[C@@H](O)C[C@]2(C)[C@@]1(O)C(=O)CO`
65.1

Please list cell viability recorded for the compound `CCN(CC)C(=S)SSC(=S)N(CC)CC`
115

For the compound `CN1\C(=C(\O)C2=C(C=CS2)[S+]1([O-])=O)C(=O)NC3=CC=CC=N3` , give its reported cell viability.
118

Identify cell viability associated with the compound `C\C1=C\N([C@H]2C[C@H](N=[N+]=[N-])[C@@H](CO)O2)C(=O)NC1=O`
121

Return cell viability (reported value) for this compound: `C[C@@]12O[C@@H](C[C@]1(O)CO)n1c3ccccc3c3c4c(c5c6ccccc6n2c5c31)CNC4=O`
70.5

Give cell viability for the following compound: `C\C1=C\C(=O)C2=C(C=CC=C2)C1=O`
125

Fill in reported cell viability for this entry: `CCOc1ccc(Nc2nc(-c3c(C)nc4ccccn34)cs2)cc1`
19.6

Please report cell viability for the following compound: `C=CC1=C(C(=O)O)N2C(=O)[C@@H](NC(=O)/C(=N\O)c3csc(N)n3)[C@H]2SC1`
124

Give the measured cell viability for `CN1CCC(CC1)COC2=CN=C(N=C2)C3=CC(=CC=C3)CN4/N=C(\C=C/C4=O)C5=CC(=CC=C5)C#N`
118

====

- Tested on: SEM cells
- ASSAY PROTOCOL: cell viability relative to DMSO control; higher = less cytotoxic
- PROTOCOL CONDITIONS: RPMI 5 mM glucose + 10% dialyzed FBS; 48 h; 46.1 µM
# reported cell viability; entries follow
State just the number; it will be interpreted in %.

The following compounds have reported results that may help.
>>> obs_value("C[C@H]1C[C@H]2[C@@H]3CCC4=CC(=O)C=C[C@]4(C)[C@@]3(F)[C@@H](O)C[C@]2(C)[C@@]1(O)C(=O)CO")
74
>>> obs_value("CC(C)(C)c1cc(C=C(C#N)C#N)cc(Br)c1O")
90.7
>>> obs_value("O=C1Nc2cc(Br)ccc2/C1=C1/Nc2ccccc2/C1=N\\O")
1.3

Give the reported cell viability for this compound. `O=C1Nc2ccc(Cl)cc2[C@@](C#CC2CC2)(C(F)(F)F)O1`
54.7

Provide measured cell viability value, entry: `Cc1cccc(C)c1OCC(=O)N[C@@H](Cc1ccccc1)[C@@H](O)C[C@H](Cc1ccccc1)NC(=O)[C@H](C(C)C)N1CCCNC1=O`
31.2

Answer with the recorded cell viability for the compound listed here: `CCC[C@H](N[C@@H](C)C(=O)N1[C@H](C(=O)O)C[C@@H]2CCCC[C@@H]21)C(=O)OCC`
106

Look up cell viability of `NC1=NC=C(C=C1)C2=CC=C3N=CC\4=C(N(C(=O)\C=C4)C5=CC(=CC=C5)C(F)(F)F)C3=C2` and report it.
8.96

Answer with reported cell viability of `Cn1c(Nc2ccc(C(F)(F)F)cc2)nc2cc(Oc3ccnc(-c4nc(C(F)(F)F)c[nH]4)c3)ccc21`
18.1

Specify measured cell viability for `[NH2][Pt]([NH2])([Cl])[Cl]` .
51.8

====

- System: NOMO1
- ASSAY PROTOCOL: AUC of viability dose-response curve (% viability x log10 dose units); higher = less sensitive
- PROTOCOL CONDITIONS: HPLM + 10% dialyzed FBS; 48 h
We begin with a simple list: items and their reported AUC of viability dose-response curve.
I'd appreciate a reply containing only the number, no unit.

Example entries and their recorded answers appear below.
>>> obs_value("COc1cc2c(Nc3ccc(Cl)c(Cl)c3F)ncnc2cc1OC[C@@H]1C[C@@H]2CN(C)C[C@@H]2C1")
355
>>> obs_value("CC(=O)O[C@@]1(CC[C@H]2[C@@H]3\\C=C(C)/C4=C/C(=O)CC[C@]4(C)[C@H]3CC[C@]12C)C(C)=O")
459
>>> obs_value("C[C@H]1C[C@H]2[C@@H]3CCC4=CC(=O)C=C[C@]4(C)[C@@]3(F)[C@@H](O)C[C@]2(C)[C@@]1(O)C(=O)CO")
429

Please supply the value of reported AUC of viability dose-response curve for the item `Cc1cccc(C)c1OCC(=O)N[C@@H](Cc1ccccc1)[C@@H](O)C[C@H](Cc1ccccc1)NC(=O)[C@H](C(C)C)N1CCCNC1=O`
443

Tell me AUC of viability dose-response curve reported for `O=C(NC[C@H]1CN(c2ccc(N3CCOCC3=O)cc2)C(=O)O1)c1ccc(Cl)s1`
345

State its AUC of viability dose-response curve for this molecule: `O=C1\C=C/C[C@@H]2[C@H]3CCCN4CCC[C@@H](CN12)[C@@H]34`
456

Provide AUC of viability dose-response curve value for the following molecule: CC(=O)NC(CS)C(=O)O (stereo not drawn)
376

Read off the recorded AUC of viability dose-response curve for `C[C@H]1[C@H](OC(=O)CCC(=O)O)O[C@@H]2O[C@@]3(C)CC[C@H]4[C@H](C)CC[C@@H]1[C@@]24OO3`
350
